Listed here: items and their measured AUC25.
- Tested on: Mycobacterium tuberculosis Erdman (autoluminescent)
- Assay Summary: AUC25, normalised area under dose response up to IC25 (three-drug combination) (fraction (0-1)); higher = more potent at low dose
- Condition Notes: in vitro model: cholesterol-high 0.2 mM; time point: constant (~7 days, model-specific)
Measured Endpoint: AUC25

- Molecule: "COc1nc2ccc(Br)cc2cc1[C@@H](c1ccccc1)[C@@](O)(CCN(C)C)c1cccc2ccccc12 [bedaquiline] + CC(=O)NC[C@H]1CN(c2ccc(N3CCOCC3)c(F)c2)C(=O)O1 [linezolid] + CO[C@H]1/C=C/O[C@@]2(C)Oc3c(C)c(O)c4c(O)c(c(/C=N/N5CCN(C6CCCC6)CC5)c(O)c4c3C2=O)NC(=O)/C(C)=C\\C=C\\[C@H](C)[C@H](O)[C@@H](C)[C@@H](O)[C@@H](C)[C@H](OC(C)=O)[C@@H]1C [rifapentine]"
  Assay Target: "Mycobacterium tuberculosis Erdman (autoluminescent)"
  Endpoint Value: 0.0873
- Molecule: "NNC(=O)c1ccncc1 [isoniazid] + O=[N+]([O-])c1cn2c(n1)OC[C@@H](OCc1ccc(OC(F)(F)F)cc1)C2 [pretomanid] + NC(=O)c1cnccn1 [pyrazinamide]"
  Assay Target: "Mycobacterium tuberculosis Erdman (autoluminescent)"
  Endpoint Value: 0.0717

The measured values listed here are drawn from the supplement of paper PMC8617591.
